Target: GluK3a (Rattus norvegicus, UniProt P42264)
Sequence (P42264 32-919): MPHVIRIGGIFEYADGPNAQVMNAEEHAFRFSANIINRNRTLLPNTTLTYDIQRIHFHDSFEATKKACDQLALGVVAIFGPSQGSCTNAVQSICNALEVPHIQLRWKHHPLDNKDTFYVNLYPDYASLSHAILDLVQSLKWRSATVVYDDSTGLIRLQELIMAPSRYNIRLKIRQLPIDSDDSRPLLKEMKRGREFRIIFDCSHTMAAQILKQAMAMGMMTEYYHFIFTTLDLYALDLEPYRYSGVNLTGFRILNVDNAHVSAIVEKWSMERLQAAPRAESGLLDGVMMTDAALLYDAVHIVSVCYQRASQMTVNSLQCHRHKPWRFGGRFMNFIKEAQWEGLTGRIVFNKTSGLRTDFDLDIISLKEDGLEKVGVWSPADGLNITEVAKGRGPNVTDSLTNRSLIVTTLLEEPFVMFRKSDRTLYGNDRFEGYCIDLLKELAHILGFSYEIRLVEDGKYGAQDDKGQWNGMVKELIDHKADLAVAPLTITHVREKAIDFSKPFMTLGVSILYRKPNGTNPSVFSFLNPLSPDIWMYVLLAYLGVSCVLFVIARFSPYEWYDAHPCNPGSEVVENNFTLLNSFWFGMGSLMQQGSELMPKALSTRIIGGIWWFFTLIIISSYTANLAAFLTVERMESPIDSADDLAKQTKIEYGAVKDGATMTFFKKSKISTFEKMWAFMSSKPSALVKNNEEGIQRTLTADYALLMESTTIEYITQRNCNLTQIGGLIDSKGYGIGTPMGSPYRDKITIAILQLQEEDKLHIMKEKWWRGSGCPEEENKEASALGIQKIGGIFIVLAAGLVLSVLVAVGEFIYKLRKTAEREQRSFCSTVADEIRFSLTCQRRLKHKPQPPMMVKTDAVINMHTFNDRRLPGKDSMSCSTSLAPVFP
Assay: Intracellular Ca2+ imaging assay, HEK293 cells expressing GluK3a
Conditions: 100 µM KA + 300 µM BPAM344, Ca2+ fluorescence, read-out: IC50, antagonism of agonist-evoked responses at GluK3
READOUT_LABEL: IC50

>  <RECORD_SMILES>
O=C(Nn1c(=O)c(=O)[nH]c2cc(C#Cc3cnc4cccnn34)ccc21)c1ccccc1

>  <MEASURED_TARGET>
GluK3a (Rattus norvegicus, UniProt P42264)

>  <IC50>
3600 nM

$$$$
>  <RECORD_SMILES>
O=C(Nn1c(=O)c(=O)[nH]c2cc(C#Cc3ccc4[nH]ncc4n3)ccc21)c1ccccc1

>  <MEASURED_TARGET>
GluK3a (Rattus norvegicus, UniProt P42264)

>  <IC50>
2200 nM

$$$$

For the next question, use this molecule.
Prompt: So what IC50 did O=C(Nn1c(=O)c(=O)[nH]c2cc(C#Cc3cncnc3)ccc21)c1ccccc1 get with GluK3a (Rattus norvegicus, UniProt P42264)?
Response: 600 nM

---

Target: GluK1 (Rattus norvegicus)
Construct: made in house; host or cells: Sf9 insect cells (membranes)
Sequence (P22756 31-949): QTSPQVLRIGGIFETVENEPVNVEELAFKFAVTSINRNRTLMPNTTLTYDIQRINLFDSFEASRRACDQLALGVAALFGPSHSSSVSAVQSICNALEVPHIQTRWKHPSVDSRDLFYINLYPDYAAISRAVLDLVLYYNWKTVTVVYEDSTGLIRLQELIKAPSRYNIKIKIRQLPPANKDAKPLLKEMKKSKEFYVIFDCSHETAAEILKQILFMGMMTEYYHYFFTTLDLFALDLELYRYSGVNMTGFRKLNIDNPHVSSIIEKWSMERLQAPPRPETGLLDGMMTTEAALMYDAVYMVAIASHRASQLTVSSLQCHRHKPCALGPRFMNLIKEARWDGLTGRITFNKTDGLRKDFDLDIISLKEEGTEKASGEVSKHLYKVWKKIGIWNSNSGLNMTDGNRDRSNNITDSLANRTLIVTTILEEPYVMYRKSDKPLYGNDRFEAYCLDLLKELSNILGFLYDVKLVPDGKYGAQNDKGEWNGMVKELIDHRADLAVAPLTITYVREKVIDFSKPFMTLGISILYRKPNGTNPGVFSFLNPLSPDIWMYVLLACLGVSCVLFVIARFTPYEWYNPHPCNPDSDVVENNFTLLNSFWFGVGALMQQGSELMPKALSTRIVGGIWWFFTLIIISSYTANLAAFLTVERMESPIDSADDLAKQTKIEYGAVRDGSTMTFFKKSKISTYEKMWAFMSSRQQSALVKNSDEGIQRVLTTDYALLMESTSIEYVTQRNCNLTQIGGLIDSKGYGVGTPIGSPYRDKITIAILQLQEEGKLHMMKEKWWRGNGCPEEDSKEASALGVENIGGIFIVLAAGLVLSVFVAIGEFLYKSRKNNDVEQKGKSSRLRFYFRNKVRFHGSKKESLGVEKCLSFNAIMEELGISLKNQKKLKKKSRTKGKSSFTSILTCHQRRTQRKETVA
Experiment: Radioligand binding at recombinant homomeric GluK1 in Sf9 membranes
Conditions: recombinant rat homomeric receptor, [3H]-(S)-NF608, mean ± SEM
Experimental: Ligand binding affinities at recombinant rat homomeric GluA2, GluK1−3, and GluK5 were determined as previously detailed. […] The filters were dried at 70 °C for 1 h, and 50 μL/well Microscint 20 (PerkinElmer, Waltham, MA, USA) was added. Radioactivity was detected with a TopCounter (PerkinElmer, Waltham, MA, USA). […] All competition curves (n ≥ 3 per ligand) were determined in triplicate. […]
pKi: −log10 of the molar value.
READOUT_LABEL: pKi

These recorded examples may help you get a feel for the data.
>  <COMPOUND>
COc1ccc(C#Cc2ccc3c(c2)[nH]c(=O)c(=O)n3NC(=O)c2ccccc2)cc1 [Compound 12]

>  <MEASURED_TARGET>
GluK1 (Rattus norvegicus)

>  <pKi>
< 4.00

$$$$
>  <COMPOUND>
CC(C)c1ccc(C#Cc2ccc3c(c2)[nH]c(=O)c(=O)n3NC(=O)c2ccccc2)cc1 [Compound 9]

>  <MEASURED_TARGET>
GluK1 (Rattus norvegicus)

>  <pKi>
< 4.00

$$$$
>  <COMPOUND>
Cc1ccc(C#Cc2ccc3c(c2)[nH]c(=O)c(=O)n3NC(=O)c2ccccc2)cc1 [Compound 6]

>  <MEASURED_TARGET>
GluK1 (Rattus norvegicus)

>  <pKi>
≤ 4.00

$$$$
>  <COMPOUND>
NS(=O)(=O)c1ccc(C#Cc2ccc3c(c2)[nH]c(=O)c(=O)n3NC(=O)c2ccccc2)cc1 [Compound 16]

>  <MEASURED_TARGET>
GluK1 (Rattus norvegicus)

>  <pKi>
< 4.00

$$$$
>  <COMPOUND>
O=C(Nn1c(=O)c(=O)[nH]c2cc(C#Cc3cncnc3)ccc21)c1ccccc1 [Compound 27]

>  <MEASURED_TARGET>
GluK1 (Rattus norvegicus)

>  <pKi>
4.96

$$$$

Prompt: Look up pKi: O=C(Nn1c(=O)c(=O)[nH]c2cc(C#Cc3ccc(Cl)cc3)ccc21)c1ccccc1 [Compound 10]
Response: < 4.00

Prompt: Also check O=C(Nn1c(=O)c(=O)[nH]c2cc(C#Cc3ccc4[nH]ncc4n3)ccc21)c1ccccc1 [Compound 29]
Response: 6.82

Prompt: Also check O=C(Nn1c(=O)c(=O)[nH]c2cc(C#Cc3cnc4cccnn34)ccc21)c1ccccc1 [Compound 28]
Response: ~4.00
